I'd appreciate it if you could supply Hela-p4 MTS 50 μM values for the items below.
system: HeLa-p4 cells; test: Cell viability assay (MTS) on HeLa-p4 cells; format: cell-based; details: 50 μM; cell viability
Where a name gives a salt, the structure may show the parent alone.
One number for each entry.

Cc1ccc(CCN2C[C@H](N)C[C@H](N)C2)cc1 [ECO01-029-C]; 94
N[C@@H]1C[C@H](N)CN(CCCCc2ccccc2)C1 [ECO02-026-C, 1-(4-phenylbutyl)piperidine-3,5-diamine]; 26
COc1cccc(CCN2C[C@@H](N)C[C@@H](NS(C)(=O)=O)C2)c1 (racemic) [ECO02-073-C]; 100
COc1cccc(N2C[C@H](N)C[C@H](N)C2)c1 [ECO01-055-C]; 94
N[C@@H]1C[C@H](N)CN(S(=O)(=O)c2ccccc2)C1 [ECO03-001-B, 1-(phenylsulfonyl)piperidine-3,5-diamine]; 97
COc1cccc(CCN2C[C@H](N)C[C@H](N)C2)c1 [ECO01-026-C2]; 106

For each of the compounds below, note its Hela-p4 MTS 50 μM.
1. N[C@@H]1C[C@H](N)CN(Cc2cccc3cnccc23)C1 [ECO02-068-C, trihydrochloride]
2. CC(C)(C)OC(=O)N[C@@H]1C[C@H](NC(=O)OC(C)(C)C)CN(Cc2ccco2)C1 [ECO02-058-C]

output:
1. 85
2. 105

====

tested on: HeLa-p4 cells; assay: Cell viability assay (MTS) on HeLa-p4 cells; assay type: cell-based; conditions: 200 μM; cell viability
Please respond with reported Hela-p4 MTS 200 μM for every item in the list.
Answers are plain numbers.

Example entries and their recorded answers appear below.
COc1cccc(CCN2C[C@H](N)C[C@H](N)C2)c1; 72
N[C@@H]1C[C@H](N)CN(c2ccc(NC(=O)c3ccccc3)cc2)C1; 74
COc1cccc(CCN2C[C@@H](N)C[C@@H](NC(=O)OC(C)(C)C)C2)c1; 25
COc1ccc(CCN2C[C@H](N)C[C@H](N)C2)cc1OC; 69
COC(=O)[C@@H](Cc1ccccc1)N1C[C@H](N)C[C@H](N)C1; 75
COc1cccc(CCN2C[C@H](NC(C)=O)C[C@H](NC(C)=O)C2)c1; 84
N[C@@H]1C[C@H](N)CN(Cc2ccco2)C1; 68
COc1ccc(CN2C[C@H](N)C[C@H](N)C2)cc1OC; 58
CC(O)c1ccc(C(=O)NC(CCCCN)C(=O)N2C[C@H](N)C[C@H](N)C2)cc1 (stereo partly drawn); 74
COc1ccc2c(CN3C[C@H](NC(=O)OC(C)(C)C)C[C@H](NC(=O)OC(C)(C)C)C3)cn(C)c2c1; 43

Batch lookup, Hela-p4 MTS 200 μM per entry.
1. COc1cccc(CCN2C[C@H](NC(=O)OC(C)(C)C)C[C@H](NC(=O)OC(C)(C)C)C2)c1
2. CN(C)c1ccc(CN2C[C@H](NC(=O)OC(C)(C)C)C[C@H](NC(=O)OC(C)(C)C)C2)cc1
3. CC(C)(C)OC(=O)N[C@@H]1C[C@H](NC(=O)OC(C)(C)C)CN(Cc2ccco2)C1
4. CC(C)(C)OC(=O)N[C@@H]1C[C@H](NC(=O)OC(C)(C)C)CN(S(=O)(=O)c2ccccc2)C1
5. COc1cc(N2C[C@H](N)C[C@H](N)C2)cc(OC)c1OC

output:
1. 104
2. 73
3. 87
4. 77
5. 86

Here are 3 molecules. What values of Hela-p4 MTS 200 μM were reported for them?
1. N[C@@H]1CNC[C@H](N)C1
2. CCc1ccc(C(=O)NC(CCCCN)C(=O)N2C[C@H](N)C[C@H](N)C2)cc1 (stereo partly drawn)
3. COc1ccc(CN2C[C@H](N)C[C@H](N)C2)cc1

output:
70
72
72
